I'd appreciate it if you could supply pEC50 values for the items below.
- Target: κ opioid receptor (Homo sapiens, UniProt P41145)
- Sequence (P41145 whole entry): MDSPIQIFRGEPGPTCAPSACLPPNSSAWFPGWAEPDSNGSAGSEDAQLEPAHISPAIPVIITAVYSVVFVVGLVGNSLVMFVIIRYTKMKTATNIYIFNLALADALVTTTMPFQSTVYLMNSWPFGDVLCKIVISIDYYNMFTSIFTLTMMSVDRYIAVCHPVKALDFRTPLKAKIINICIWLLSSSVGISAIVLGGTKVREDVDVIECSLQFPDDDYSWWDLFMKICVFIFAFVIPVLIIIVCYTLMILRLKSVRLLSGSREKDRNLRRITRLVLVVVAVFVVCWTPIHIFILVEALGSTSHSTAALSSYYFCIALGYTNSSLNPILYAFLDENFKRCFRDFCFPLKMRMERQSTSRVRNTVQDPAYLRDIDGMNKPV
- Experimental Protocol: κ-opioid receptor [35S]GTPγS functional assay
- Type: biochemical
- Set-up: expressed in transfected cells
Answers are plain numbers, as −log10 of the molar value.

Some solved cases for reference:
>  <Smiles Representation>
COc1ccc2c(c1)[C@@]1(CCC[C@@H](O)CO)CCN(CC3CC3)C(C2)[C@@H]1C

>  <Observed Property>
pEC50

>  <Obs Value>
7.03

$$$$
>  <Smiles Representation>
COc1ccc2c(c1)[C@@]1(CCCCO)CCN(CC3CC3)C(C2)[C@@H]1C

>  <Observed Property>
pEC50

>  <Obs Value>
6.53

$$$$

Batch request: pEC50 for each of the following compounds.
1. COc1ccc2c(c1)[C@@]1(C[C@H](O)CO)CCN(CC3CC3)C(C2)[C@@H]1C
2. COc1ccc2c(c1)[C@@]1(CCC[C@H](O)CO)CCN(CC3CC3)C(C2)[C@@H]1C

5.51
6.68

* * *

- Target: μ-opioid receptor (Homo sapiens, UniProt P35372)
- Sequence (P35372 whole entry, species assumed): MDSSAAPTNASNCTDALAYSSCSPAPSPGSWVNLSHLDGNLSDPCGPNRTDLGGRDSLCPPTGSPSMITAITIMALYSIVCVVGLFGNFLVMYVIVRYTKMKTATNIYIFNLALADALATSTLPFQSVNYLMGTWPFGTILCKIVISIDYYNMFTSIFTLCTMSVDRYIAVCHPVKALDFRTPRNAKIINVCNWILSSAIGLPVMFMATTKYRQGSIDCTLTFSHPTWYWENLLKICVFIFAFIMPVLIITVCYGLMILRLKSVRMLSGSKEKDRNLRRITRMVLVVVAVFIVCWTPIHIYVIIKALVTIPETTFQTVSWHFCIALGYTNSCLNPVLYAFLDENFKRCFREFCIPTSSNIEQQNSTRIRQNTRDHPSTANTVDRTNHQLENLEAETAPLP
- Experimental Protocol: μ-opioid receptor [35S]GTPγS functional assay
- Format: biochemical
- Design: purchased Perkin Elmer, Shelton, Conn
- Reported Conditions: μ-receptor membranes; read-out: GTPγS μ EC50
Observed Property: EC50 (nM)
One number for each entry, in nM.

Batch request: EC50 for each of the following compounds.
1. COC(=O)/C=C/C[C@@]12CCN(CC3CC3)C(Cc3ccc(OC)cc31)[C@@H]2C
2. COc1ccc2c(c1)[C@]1(CCOc3ccc(C(=O)O)cc3)CCN(CC3CC3)[C@H](C2)[C@@H]1C

[562, 245]

Batch request: EC50 for each of the following compounds.
1. COc1ccc2c(c1)[C@]1(CCNC(=O)c3cccc(C(=O)O)c3)CCN(CC3CC3)[C@H](C2)[C@@H]1C
2. COc1ccc2c(c1)[C@@]1(CCCc3ccco3)CCN(CC3CC3)C(C2)C1C (stereo in doubt)
3. COC(=O)CCC[C@]12CCN(CC3CC3)[C@H](Cc3ccc(O)cc31)[C@@H]2C
4. C[C@H]1[C@H]2Cc3ccc(O)cc3[C@]1(CCOc1cncc(C(=O)O)c1)CCN2CC1CC1
5. COc1ccc2c(c1)[C@@]1(CCCCNCC(C)C)CCN(CC3CC3)C(C2)[C@@H]1C
6. COc1ccc2c(c1)[C@@]1(CCCCOCc3ccccc3)CCN(CC3CC3)C(C2)[C@@H]1C
7. C[C@H]1[C@H]2Cc3ccc(O)cc3[C@]1(CCCC(N)=O)CCN2Cc1ccccc1

[251, 303, 2.33, 8.95, 643, 580, 40.1]

Quick one: give measured EC50 for COC(=O)c1cccc(C(=O)NCC[C@]23CCN(CC4CC4)[C@H](Cc4ccc(OC)cc42)[C@@H]3C)c1
46.1

* * *

- Target: κ opioid receptor (Homo sapiens)
- Experimental Protocol: κ-opioid receptor [35S]GTPγS functional assay
- Format: biochemical
- Set-up: expressed in transfected cells
- Reported Conditions: κ membrane protein (in-house); read-out: GTPγS κ EC50
I'd appreciate it if you could supply pEC50 values for the items below.
Give bare numbers, as −log10 of the molar value.

Some solved cases for reference:
>  <Compound>
COC(=O)/C=C/C[C@@]12CCN(CC3CC3)C(Cc3ccc(OC)cc31)[C@@H]2C [Compound 8]

>  <pEC50>
6.91

$$$$
>  <Compound>
C[C@H]1[C@H]2Cc3ccc(O)cc3[C@]1(CCNC(=O)CN(C)C)CCN2CC1CC1 [Compound 30]

>  <pEC50>
8.75

$$$$
>  <Compound>
COC(=O)CCC[C@]12CCN(CC3CC3)[C@H](Cc3ccc(O)cc31)[C@@H]2C [Compound 23]

>  <pEC50>
8.28

$$$$

Batch request: pEC50 for each of the following compounds.
1. C[C@H](NC(=O)C[C@@]12CCN(CC3CC3)C(Cc3ccc(O)cc31)[C@@H]2C)C(N)=O [Compound 1]
2. C[C@H]1[C@H]2Cc3ccc(O)cc3[C@]1(CCOc1cncc(C(=O)O)c1)CCN2CC1CC1 [Compound 16]

[8.05, 7.17]

* * *

- Target: κ opioid receptor (Homo sapiens, UniProt P41145)
- Experimental Protocol: κ-opioid receptor radioligand dose displacement binding assay
- Set-up: expressed in transfected cells; host or cells: HEK-293
- Reported Conditions: [3H]-U69,593 displacement, HEK-293 membranes; read-out: Ki (nM) Opioid Receptor κ
Lab note: cut-off is 0.5 nM. Strictly less in Ki is class 1. Exactly 0.5 nM or more is class 0.

Examples with answers:
>  <Smiles Representation>
C[C@H]1C2Cc3ccc(O)cc3[C@@]1(CCCC(=O)O)CCN2CC1CC1

>  <Assigned Category>
class 0

$$$$
>  <Smiles Representation>
C[C@H](NC(=O)CCC[C@]12CCN(CC3CC3)[C@H](Cc3ccc(O)cc31)[C@@H]2C)C(N)=O

>  <Assigned Category>
class 1

$$$$

Field: below-cutoff. Rule: recorded Ki strictly less than 0.5 nM. Subject: COC(=O)[C@H](C)NC(=O)CCC[C@]12CCN(CC3CC3)[C@H](Cc3ccc(O)cc31)[C@@H]2C
class 1

Field: below-cutoff. Rule: recorded Ki strictly less than 0.5 nM. Subject: COc1ccc2c(c1)[C@@]1(CC(=O)O)CCN(CC3CC3)C(C2)[C@@H]1C
class 0

Field: below-cutoff. Rule: recorded Ki strictly less than 0.5 nM. Subject: COc1ccc2c(c1)[C@@]1(CCCCNCC(C)C)CCN(CC3CC3)C(C2)[C@@H]1C
class 0

* * *

- Target: UniProtKB P35372
- Experimental Protocol: μ-opioid receptor [35S]GTPγS functional assay
- Type: biochemical
- Design: purchased Perkin Elmer, Shelton, Conn
- Reported Conditions: relative to the effect elicited by DAMGO
Lab note: cut-off is 50%. Strictly less in Emax is Satisfied. Exactly 50% or more is Not satisfied.

Examples with answers:
>  <Smiles Representation>
C[C@H]1[C@H]2Cc3ccc(O)cc3[C@@]1(CCNC(=O)CN)CCN2CC1CC1

>  <Assigned Category>
Not satisfied

$$$$
>  <Smiles Representation>
COC(=O)[C@H](C)NC(=O)CCC[C@]12CCN(CC3CC3)[C@H](Cc3ccc(O)cc31)[C@@H]2C

>  <Assigned Category>
Satisfied

$$$$
>  <Smiles Representation>
COc1ccc2c(c1)[C@@]1(CCCCNCC(C)C)CCN(CC3CC3)C(C2)[C@@H]1C

>  <Assigned Category>
Not satisfied

$$$$

Field: below-cutoff. Rule: recorded Emax strictly less than 50%. Subject: CC(C)CN1CC[C@@]2(CCCC(N)=O)c3cc(O)ccc3C[C@@H]1[C@@H]2C
Satisfied

Field: below-cutoff. Rule: recorded Emax strictly less than 50%. Subject: COC(=O)/C=C/C[C@@]12CCN(CC3CC3)C(Cc3ccc(OC)cc31)[C@@H]2C
Satisfied

Field: below-cutoff. Rule: recorded Emax strictly less than 50%. Subject: C[C@H]1[C@H]2Cc3ccc(O)cc3[C@]1(CCCC(N)=O)CCN2Cc1ccccc1
Satisfied
